System: IL-5
Experiment: Effect on cytokine production of mice sensitized by controlled-release ovalbumin: IL-5
Assay type: in vivo, BALB/c mouse
Details: Mus musculus, po; 30 mg/kg b.w. orally, 5 days a week during 9-day period; splenic cells incubated with OVA 3 days, ELISA; read-out: Suppression Rate (%) IL-5
Where a name gives a salt, the structure may show the parent alone.
Overview of reported inhibition in vivo at 30 mg/kg across a group of compounds:

COMPOUND	inhibition in vivo at 30 mg/kg / %
CCOc1cccc(-n2nc(C)c3c(=O)c4cccc(C)c4[nH]c32)n1	26.1
Cc1nn(-c2ncccn2)c2nc3ccccc3c(N)c12 [Example 1-65, hydrochloride]	16.5
Cc1nn(-c2ccccn2)c2nc3ccccc3c(N)c12.Cl [Example 1-36, hydrochloride]	61.5
Cc1cccc2c(N)c3c(C)nn(-c4ccccn4)c3nc12 [Example 1-46, hydrochloride]	5.2
CCOc1cccc(-n2nc(C)c3c(Cl)c4c(C)cccc4nc32)n1	53.9
Cc1nn(-c2cccnc2)c2[nH]c3ccccc3c(=O)c12	39.9
COc1cccc(-n2nc(C)c3c(N)c4cccc(C)c4nc32)n1	27.8
Cc1cccnc1-n1nc(C)c2c(Cl)c3ccccc3nc21	12.2
